assay: kinetic analysis, non-endpoint assay at 23° C.; type: biochemical; conditions: standard error in parenthetical, NDB = activity not robust enough for kinetic characterization, read-out: Km 2,4-D
ATTRIBUTE MEASURED: Km (µM)
Report only the number, with the unit µM understood.

Let me know recorded Km for MON-HT7: engineered oxygenase protein, amino acid sequence SEQ ID NO:34 (protein) MHAALTPLTNKYRFIDVQPLTGVLGAEITGVDLREPLDDSTWNEILDAFHTYQVIYFPGQAITNEQHIAFSRRFGPVDPVPLLKSIEGYPEVQMIRREANESGRVIGDDWHADSTFLDAPPAAVVMRAIEVPEYGGDTGFLSMYSAWETLSPTMQATIEGLNVVHSATKVFGSLYQATNWRFSNTSVKVMDVDAGDRETVHPLVVTHPVTGRRALYCNQVYCQKIQGMTDAESKSLLQFLYEHATKFDFTCRVRWKKDQVLVWDNLCTMHRSVPDYAGKFRYLTRTTVAGDKPSR , thanks.
60
